Would you kindly list IC50 for each of these molecules?
Biological target: Mcl-1 protein (Homo sapiens)
Sequence (Q07820 whole entry): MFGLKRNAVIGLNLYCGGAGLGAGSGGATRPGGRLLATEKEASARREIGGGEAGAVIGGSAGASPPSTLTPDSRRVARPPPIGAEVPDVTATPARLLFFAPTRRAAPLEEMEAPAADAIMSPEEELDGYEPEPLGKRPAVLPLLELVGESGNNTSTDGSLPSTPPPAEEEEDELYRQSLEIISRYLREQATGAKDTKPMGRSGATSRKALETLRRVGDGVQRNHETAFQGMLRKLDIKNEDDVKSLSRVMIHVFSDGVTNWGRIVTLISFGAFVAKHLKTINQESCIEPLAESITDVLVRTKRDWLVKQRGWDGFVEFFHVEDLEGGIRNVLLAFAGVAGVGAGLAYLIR
Assay: Inhibition of Mcl-1 by the fluorescence polarisation technique
Format: binding
Conditions: fluorescence polarisation test; read-out: IC50 (M) Mcl-LFP
Give bare numbers, in M.

Examples with their reported IC50 follow.
COc1ccccc1-c1nccc(COc2ccccc2CC(Oc2ncnc3sc(-c4ccc(F)cc4)c(-c4ccc(OCCN5CC[N+](C)(COC(=O)C(C)(C)C)CC5)c(Cl)c4C)c23)C(=O)O)n1 (stereo not drawn) ... 1.04e-09
COc1ccccc1-c1nccc(COc2ccccc2CC(Oc2ncnc3sc(-c4ccc(F)cc4)c(-c4ccc(OCCN5CC[N+](C)(COP(=O)([O-])OCc6ccccc6)CC5)c(Cl)c4C)c23)C(=O)O)n1 (stereo not drawn) ... 9.48e-10

The value of IC50 measured for the molecule CCN(CC)C(=O)OC(C)[N+]1(C)CCN(CCOc2ccc(-c3c(-c4ccc(F)cc4)sc4ncnc(OC(Cc5ccccc5OCc5ccnc(-c6ccccc6OC)n5)C(=O)O)c34)c(Br)c2Cl)CC1 (stereo not drawn) turned out to be 1.36e-09

* * *

Test system: H929 multiple myeloma tumour line
Experiment: In vitro cytotoxicity (MTT)
Format: cell-based
Conditions: H929 cells, 48 hours exposure
Mark rule met only when IC50 stays strictly below 30 nM. Values equal to the cut-off are rule not met.

As a guide, the following entries are already answered.
CCN(CC)C(=O)OC[N+]1(C)CCN(CCOc2ccc(-c3c(-c4ccc(F)cc4)sc4ncnc(OC(Cc5ccccc5OCc5ccnc(-c6ccccc6OC)n5)C(=O)O)c34)c(Br)c2Cl)CC1 (centres unmarked) ... rule not met
COc1ccccc1-c1nccc(COc2ccccc2C[C@@H](Oc2ncnc3sc(-c4ccc(F)cc4)c(-c4ccc(OCCN5CC[N+](C)(COC(=O)C(C)(C)C)CC5)c(Cl)c4Br)c23)C(=O)O)n1 ... rule met
CCOC(=O)OC[N+]1(C)CCN(CCOc2ccc(-c3c(-c4ccc(F)cc4)sc4ncnc(OC(Cc5ccccc5OCc5ccnc(-c6ccccc6OC)n5)C(=O)O)c34)c(Br)c2Cl)CC1 (centres unmarked) ... rule met
COc1ccccc1-c1nccc(COc2ccccc2CC(Oc2ncnc3sc(-c4ccc(F)cc4)c(-c4ccc(OCCN5CC[N+](C)(COC(=O)C(C)(C)C)CC5)c(Cl)c4C)c23)C(=O)O)n1 (centres unmarked) ... rule met

For COc1ccccc1-c1nccc(COc2ccccc2CC(Oc2ncnc3sc(-c4ccc(F)cc4)c(-c4ccc(OCCN5CC[N+](C)(Cc6oc(=O)oc6C)CC5)c(Cl)c4C)c23)C(=O)O)n1 (centres unmarked) , is the recorded IC50 below the cut-off of 30 nM?
rule met

Is it true that IC50 reported for CCN(CC)C(=O)OC(C)[N+]1(C)CCN(CCOc2ccc(-c3c(-c4ccc(F)cc4)sc4ncnc(O[C@H](Cc5ccccc5OCc5ccnc(-c6ccccc6OC)n5)C(=O)O)c34)c(C)c2Cl)CC1 (some centres unmarked) is less than 30 nM?
rule not met

* * *

Exercise: for every item that follows, state its recorded IC50.
Target: Mcl-1 protein (Homo sapiens)
Assay: Inhibition of Mcl-1 by the fluorescence polarisation technique
Type: binding
Settings: fluorescence polarisation test; read-out: IC50 (M) Mcl-LFP
One number for each entry, in M.

COc1ccccc1-c1nccc(COc2ccccc2CC(Oc2ncnc3sc(-c4ccc(F)cc4)c(-c4ccc(OCCN5CC[N+](C)(Cc6oc(=O)oc6C)CC5)c(Cl)c4C)c23)C(=O)O)n1 (stereo not shown) ... 9.48e-10
CCN(CC)C(=O)OC(C)[N+]1(C)CCN(CCOc2ccc(-c3c(-c4ccc(F)cc4)sc4ncnc(O[C@H](Cc5ccccc5OCc5ccnc(-c6ccccc6OC)n5)C(=O)O)c34)c(C)c2Cl)CC1 (stereo partly shown) ... 1.96e-09
COc1ccccc1-c1nccc(COc2ccccc2C[C@@H](Oc2ncnc3sc(-c4ccc(F)cc4)c(-c4ccc(OCCN5CC[N+](C)(COC(=O)C(C)(C)C)CC5)c(Cl)c4Br)c23)C(=O)O)n1 ... 1.77e-09
COc1ccccc1-c1nccc(COc2ccccc2CC(Oc2ncnc3sc(-c4ccc(F)cc4)c(-c4ccc(OCC[N+](C)(C)COP(=O)([O-])O)c(Cl)c4C)c23)C(=O)O)n1 (stereo not shown) ... 1.06e-09
COc1ccccc1-c1nccc(COc2ccccc2CC(Oc2ncnc3sc(-c4ccc(F)cc4)c(-c4ccc(OCCN5CC[N+](C)(COC(C)=O)CC5)c(Cl)c4C)c23)C(=O)O)n1 (stereo not shown) ... 1.12e-09
COc1ccccc1-c1nccc(COc2ccccc2CC(Oc2ncnc3sc(-c4ccc(F)cc4)c(-c4ccc(OCCN5CC[N+](C)(COP(=O)([O-])O)CC5)c(Cl)c4Br)c23)C(=O)O)n1 (stereo not shown) ... 1.06e-09
COc1ccccc1-c1nccc(COc2ccccc2CC(Nc2ncnc3sc(-c4ccc(F)cc4)c(-c4ccc(OCCN5CC[N+](C)(COP(=O)([O-])O)CC5)c(Cl)c4C)c23)C(=O)O)n1 (stereo not shown) ... 9.48e-10
COc1ccccc1-c1nccc(COc2ccccc2C[C@@H](Oc2ncnc3sc(-c4ccc(F)cc4)c(-c4ccc(OCCN5CC[N+](C)(Cc6oc(=O)oc6C)CC5)c(Cl)c4Br)c23)C(=O)O)n1 ... 9.48e-10
COc1ccccc1-c1nccc(COc2ccccc2CC(Oc2ncnc3sc(-c4ccc(F)cc4)c(-c4ccc(OCCN5CC[N+](C)(COC(C)=O)CC5)c(Cl)c4Br)c23)C(=O)O)n1 (stereo not shown) ... 1.07e-09

Entry CCOC(=O)OC[N+]1(C)CCN(CCOc2ccc(-c3c(-c4ccc(F)cc4)sc4ncnc(OC(Cc5ccccc5OCc5ccnc(-c6ccccc6OC)n5)C(=O)O)c34)c(Br)c2Cl)CC1 (stereo not shown) ; assay system Mcl-1 protein (Homo sapiens); IC50 recorded at 9.48e-10

* * *

Biological target: Mcl-1 protein (Homo sapiens)
Experiment: Inhibition of Mcl-1 by the fluorescence polarisation technique
Type: binding
Conditions: fluorescence polarisation test; read-out: IC50 (M) Mcl-LFP
Method: The relative, binding potency of each compound was determined via Fluorescence Polarisation (FP). The method utilised a Fluorescein labelled ligand (Fluorescein-βAla-Ahx-A-REIGAQLRRMADDLNAQY-OH; mw 2,765) which binds to the Mcl-1 protein (such that Mcl-1 corresponds to the UniProtKB® primary accession number: Q07820) leading to an increased anisotropy measured in milli-polarisation (mP) units using a reader. […]
Quantity kind: IC50

Solved cases below.
COc1ccccc1-c1nccc(COc2ccccc2C[C@@H](Oc2ncnc3sc(-c4ccc(F)cc4)c(-c4ccc(OCCN5CC[N+](C)(COP(=O)([O-])O)CC5)c(Cl)c4C)c23)C(=O)O)n1 [Example 1] ... 1.03e-09 M
CCN(CC)C(=O)OC[N+]1(C)CCN(CCOc2ccc(-c3c(-c4ccc(F)cc4)sc4ncnc(OC(Cc5ccccc5OCc5ccnc(-c6ccccc6OC)n5)C(=O)O)c34)c(Br)c2Cl)CC1 (stereo not drawn) [Example 27] ... 1.17e-09 M

Turning now to a further record.
IC50 recorded for this compound, CCOC(=O)OC[N+]1(C)CCN(CCOc2ccc(-c3c(-c4ccc(F)cc4)sc4ncnc(OC(Cc5ccccc5OCc5ccnc(-c6ccccc6OC)n5)C(=O)O)c34)c(C)c2Cl)CC1 (stereo not drawn) [Example 18] , is 9.48e-10 M

* * *

I'd be grateful if you could share measured IC50 for these entries.
Test system: H929 multiple myeloma tumour line
Test: In vitro cytotoxicity (MTT)
Assay type: cell-based
Settings: H929 cells, 48 hours exposure
Respond with the figure and its unit, in that order.

COc1ccccc1-c1nccc(COc2ccccc2C[C@@H](Oc2ncnc3sc(-c4ccc(F)cc4)c(-c4ccc(OCCN5CC[N+](C)(COP(=O)([O-])O)CC5)c(Cl)c4C)c23)C(=O)O)n1 [Example 1] ... 28.4 nM

Give me IC50 for each of these compounds, listed below.
1. COc1ccccc1-c1nccc(COc2ccccc2CC(Oc2ncnc3sc(-c4ccc(F)cc4)c(-c4ccc(OCCN5CC[N+](C)(COC(C)=O)CC5)c(Cl)c4Br)c23)C(=O)O)n1 (centres unmarked) [Example 25]
2. COc1ccccc1-c1nccc(COc2ccccc2CC(Oc2ncnc3sc(-c4ccc(F)cc4)c(-c4ccc(OCCN5CC[N+](C)(COC(C)=O)CC5)c(Cl)c4C)c23)C(=O)O)n1 (centres unmarked) [Example 17]
3. COc1ccccc1-c1nccc(COc2ccccc2C[C@@H](Oc2ncnc3sc(-c4ccc(F)cc4)c(-c4ccc(OCCN5CC[N+](C)(Cc6oc(=O)oc6C)CC5)c(Cl)c4Br)c23)C(=O)O)n1 [Example 30]

["1.95 nM", "2.15 nM", "2.81 nM"]

Lab note: compound CCN(CC)C(=O)OC(C)[N+]1(C)CCN(CCOc2ccc(-c3c(-c4ccc(F)cc4)sc4ncnc(OC(Cc5ccccc5OCc5ccnc(-c6ccccc6OC)n5)C(=O)O)c34)c(Br)c2Cl)CC1 (centres unmarked) [Example 29] tested on H929 multiple myeloma tumour line; recorded IC50 was 136 nM
